Target entity: ROR gamma ligand-binding domain (hRORg) (Homo sapiens (Human), UniProt P51449)
Sequence (P51449 269-508): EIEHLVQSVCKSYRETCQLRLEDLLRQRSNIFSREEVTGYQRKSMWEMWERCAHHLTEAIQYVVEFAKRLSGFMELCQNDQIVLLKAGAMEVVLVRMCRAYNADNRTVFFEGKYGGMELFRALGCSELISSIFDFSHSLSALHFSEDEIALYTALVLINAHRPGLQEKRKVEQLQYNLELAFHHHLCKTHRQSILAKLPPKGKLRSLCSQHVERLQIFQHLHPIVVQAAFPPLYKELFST
Assay notes: GAL4-RORγ transactivation (luciferase reporter, HG5LN HeLa line)
Condition label: 18 hours incubation
Reported values of IC50 for individual entries

{"Compound": "CCc1ccc(N(CC(C)C)S(=O)(=O)c2ccc(NCC3CCNC(=O)C3)c(S(C)(=N)=O)c2)cc1 (stereo not shown)", "IC50": "> 1000 nM"}
{"Compound": "CCc1ccc(N(CC(C)C)S(=O)(=O)c2ccc(N3CC4CC3CO4)c(S(C)(=N)=O)c2)cc1 (stereo not shown)", "IC50": "100 to 1000 nM"}
{"Compound": "CCc1ccc(N(CC(C)C)S(=O)(=O)c2ccc3c(c2)SC(C)(C)N3CC2CCOCC2)cc1", "IC50": "> 1000 nM"}
{"Compound": "CCc1ccc(N(CC(C)C)S(=O)(=O)c2ccc(N3CCOC[C@H]3C)c(S(C)(=N)=O)c2)cc1 (stereo partly shown)", "IC50": "> 1000 nM"}
{"Compound": "CCc1ccc(N(CC(C)C)S(=O)(=O)c2ccc3c(c2)[S+]([O-])C(C)(C)N3CC2CCOCC2)cc1 (stereo not shown)", "IC50": "100 to 1000 nM"}
{"Compound": "CCc1ccc(N(CC(C)C)S(=O)(=O)c2ccc(NCC3CCN(C(C)=O)C3)c(S(C)(=N)=O)c2)cc1 (stereo not shown)", "IC50": "> 1000 nM"}
{"Compound": "CCc1ccc(N(CC(C)C)S(=O)(=O)c2ccc(NCC3CCN(C(C)=O)CC3)c(S(C)(=N)=O)c2)cc1 (stereo not shown)", "IC50": "> 1000 nM"}
{"Compound": "CCc1ccc(N(CC(C)C)S(=O)(=O)c2ccc(N3CC4(CNC4)C3)c(S(C)(=N)=O)c2)cc1 (stereo not shown)", "IC50": "> 1000 nM"}

Prompt line: Which IC50 is reported for this compound? CCc1ccc(N(CC(C)C)S(=O)(=O)c2ccc(NCC3CCS(=O)(=O)C3)c(S(C)(=N)=O)c2)cc1 (stereo not shown)
Response line: 100 to 1000 nM

Prompt line: Which IC50 is reported for this compound? CCc1ccc(N(CC(C)C)S(=O)(=O)c2ccc(OCc3ccnc(OC)c3)c(S(C)(=N)=O)c2)cc1 (stereo not shown)
Response line: > 1000 nM

Prompt line: Which IC50 is reported for this compound? CCc1ccc(N(CC(C)C)S(=O)(=O)c2ccc(NCc3ccnc(OC)c3)c(S(C)(=N)=O)c2)cc1 (stereo not shown)
Response line: 100 to 1000 nM

Prompt line: Which IC50 is reported for this compound? CCc1ccc(N(CC(C)C)S(=O)(=O)c2ccc(OCC(O)CO)c(S(C)(=N)=O)c2)cc1 (stereo not shown)
Response line: > 1000 nM

Prompt line: Which IC50 is reported for this compound? CCc1ccc(N(CC(C)C)S(=O)(=O)c2ccc(N3CCC4(COC4)C3)c(S(C)(=N)=O)c2)cc1 (stereo not shown)
Response line: 100 to 1000 nM

Prompt line: Which IC50 is reported for this compound? CCc1ccc(N(CC(C)C)S(=O)(=O)c2ccc(SCC3CCOCC3)c(C(=O)OC)c2)cc1
Response line: > 1000 nM

Prompt line: Which IC50 is reported for this compound? CCc1ccc(N(CC(C)C)S(=O)(=O)c2ccc(NCC3CCS(=O)(=O)CC3)c(S(C)(=N)=O)c2)cc1 (stereo not shown)
Response line: > 1000 nM

Prompt line: Which IC50 is reported for this compound? CCc1ccc(N(CC(C)C)S(=O)(=O)c2ccc(N3CC4(CN(C(=O)OC(C)(C)C)C4)C3)c(S(C)(=N)=O)c2)cc1 (stereo not shown)
Response line: > 1000 nM

Prompt line: Which IC50 is reported for this compound? CCc1ccc(N(CC(C)C)S(=O)(=O)c2ccc(OCc3ccc(F)cc3F)c(S(C)(=N)=O)c2)cc1 (stereo not shown)
Response line: > 1000 nM

Prompt line: Which IC50 is reported for this compound? CCc1ccc(N(CC(C)C)S(=O)(=O)c2ccc(NC3CCS(=O)(=O)C3)c(S(C)(=N)=O)c2)cc1 (stereo not shown)
Response line: 100 to 1000 nM
